Taken from PubChem BioAssay (NCI).

test system: OVCAR-3 ovarian; test: NCI-60 one-dose screen, 48 h; details: 10 µM unless noted
Compounds without any hit were thinned out: in the full panel of roughly 83,000, 20% have a hit. Activity calls are given as the source filed them. Rule for the calls: active = growth percent below 10; inactive = the rest.
Hi! Could you answer with just one of these? yes (1) = active, no (0) = inactive

Entry COC(=O)c1cc2c(=O)[nH]cc3c2c(n1)CCC3 : call = ?
no (0)

Entry O=C1/C(=C/c2ccc(OCc3ccccc3)cc2)Oc2cc(OCCN3CCCCC3)ccc21 : call = ?
no (0)

Entry Cn1cc(-c2nnc(-c3cn(C)c4ncccc34)o2)c2ccccc21 : call = ?
yes (1)

Entry CN(C)Cc1ccc[nH]1 : call = ?
no (0)

Entry CC1(C)NCCC[C@]2(C)[C@H]3C=CC4=C5C[C@](C)(CO)CC[C@]5(C)CC[C@@]4(C)[C@]3(C)CC[C@@H]12 : call = ?
yes (1)

Entry CCCCC(CCCCCC(CCCC)C1NC(C)Cc2cc(OC)c(OC)cc21)C1NC(C)Cc2cc(OC)c(OC)cc21 (centres undefined) : call = ?
yes (1)

Entry C=CCCCCOc1ccccc1-c1cnc(OCCCCC=C)n1C : call = ?
no (0)

Entry CNC(=O)c1cc(Oc2ccc3nc(NC(=O)c4ccc5ncccc5c4)sc3c2)ccn1 : call = ?
no (0)

Entry Brc1ccc(-c2nnc3c4[nH]ccc4ncn23)cc1 : call = ?
no (0)

Entry COCCCNc1nc(NC(=O)c2cc(OC)cc(OC)c2)cc(-c2cccnc2)n1 : call = ?
no (0)

Entry Cc1cc[n+](CCCCCCCCCC[n+]2ccc(C)cc2)cc1 : call = ?
no (0)

Entry CCOC(=O)c1nn(C2CCCCO2)c2ccc(NC(=O)CN3CCCC3)cc12 (centres undefined) : call = ?
no (0)

Entry C=C(C)[C@@H]1CC[C@]2(C(=O)O)CC[C@]3(C)[C@H](CC[C@@H]4[C@@]5(C)C/C(=C/c6ccco6)C(=O)C(C)(C)[C@@H]5CC[C@]43C)[C@@H]12 : call = ?
yes (1)

Entry COC(=O)[C@]12CCC(C)(C)C[C@H]1C1=CC[C@@H]3[C@@]4(C)C/C(=C/c5cccnc5)C(=O)C(C)(C)[C@@H]4CC[C@@]3(C)[C@]1(C)CC2 : call = ?
yes (1)

Entry COC(=O)c1cc(O)c2c(c1C(=O)OC)C[C@H]1[C@@H]3CC=C4C[C@@H](O)CC[C@]4(C)[C@H]3CC[C@]21C : call = ?
no (0)

Entry N#C/C(C(=O)c1ccccc1)=C1/C(=O)Nc2ccccc21 : call = ?
no (0)

Entry CCN(CC)c1ccc(/C=C/C=C2\NC(=O)NC2=O)cc1 : call = ?
no (0)

Entry O=C(NCc1ccc(Cn2c(=O)sn(-c3ccccc3)c2=O)cc1)OCc1ccc2c(Br)cc(Br)c(O)c2n1 : call = ?
yes (1)

Entry CCN(CC)c1ccc2cc(C(Nc3ccc(Br)c(C(F)(F)F)c3)c3nnnn3C(C)(C)C)c(=O)oc2c1 (centres undefined) : call = ?
no (0)
